Biological target: UniProt:P54634
Test: biochemical
Conditions: 50 nM recombinant enzyme, 2.5 hours at 30° C.; read-out: IC50
Each item that follows carries a reported IC50.
MEASURE_NAME: IC50

{"columns": ["COMPOUND", "VALUE_MEASURED"],
 "data": [
  ["N#C[C@@]1(n2ccc(=O)[nH]c2=O)O[C@](CF)(COP(=O)(O)OP(=O)(O)OP(=O)(O)O)[C@@H](O)[C@H]1O [Compound 331a]", "< 1000 nM"],
  ["C#C[C@]1(COP(=O)(O)OP(=O)(O)OP(=O)(O)O)O[C@@H](n2cnc3c(=O)[nH]c(N)nc32)[C@H](F)[C@@H]1O [Compound 34b]", "< 1000 nM"],
  ["C[C@]1(O)[C@H](n2ccc(N)nc2=O)O[C@](C)(COP(=O)(O)OP(=O)(O)OP(=O)(O)O)[C@H]1O [Compound 340a]", "1000 to 10000 nM"]
]}

---

Biological target: Norovirus polymerase (NoVpol, genotype II) (Lordsdale virus, UniProt P54634)
Sequence (P54634 1190-1699 limits assumed): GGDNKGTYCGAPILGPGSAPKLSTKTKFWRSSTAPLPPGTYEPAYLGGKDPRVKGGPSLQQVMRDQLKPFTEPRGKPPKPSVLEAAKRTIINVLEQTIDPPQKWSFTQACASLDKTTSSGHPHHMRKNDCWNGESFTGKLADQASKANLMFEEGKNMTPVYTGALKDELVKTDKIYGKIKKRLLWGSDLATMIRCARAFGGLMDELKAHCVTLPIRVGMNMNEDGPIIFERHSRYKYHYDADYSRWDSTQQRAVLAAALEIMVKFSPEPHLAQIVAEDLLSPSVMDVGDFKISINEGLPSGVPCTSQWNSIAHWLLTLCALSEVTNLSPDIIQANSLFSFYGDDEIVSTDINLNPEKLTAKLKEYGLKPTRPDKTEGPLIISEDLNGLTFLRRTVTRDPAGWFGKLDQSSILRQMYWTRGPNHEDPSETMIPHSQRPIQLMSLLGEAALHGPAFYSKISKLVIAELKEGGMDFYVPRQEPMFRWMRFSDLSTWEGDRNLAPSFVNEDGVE
Experiment: biochemical
Conditions: 50 nM recombinant enzyme, 2.5 hours at 30° C.; read-out: IC50

{"columns": ["COMPOUND", "IC50"],
 "data": [
  ["C#C[C@@]1(O)[C@H](O)[C@@](CF)(COP(=O)(O)OP(=O)(O)OP(=O)(O)O)O[C@H]1n1cnc2c(N)ncnc21 [Compound 230a]", "< 1 µM"],
  ["C#C[C@@]1(n2cnc3c(=O)[nH]c(N)nc32)O[C@H](COP(=O)(O)OP(=O)(O)OP(=O)(O)O)[C@@H](O)[C@H]1F [Compound 335a]", "1 to 10 µM"],
  ["C[C@]1(O)[C@H](n2ccc(=O)[nH]c2=O)O[C@](C)(COP(=O)(O)OP(=O)(O)OP(=O)(O)O)[C@H]1O [Compound 217a]", "< 1 µM"],
  ["C[C@]1(N=[N+]=[N-])[C@H](n2ccc(N)nc2=O)O[C@](F)(COP(=O)(O)OP(=O)(O)OP(=O)(O)O)[C@H]1O [Compound 302a]", "1 to 10 µM"],
  ["O=c1ccn([C@@H]2O[C@](CCl)(COP(=O)(O)OP(=O)(O)OP(=O)(O)O)[C@@H](O)C2(F)F)c(=O)[nH]1 [Compound 222a]", "10 to 100 µM"],
  ["CCC[C@]1(CO)O[C@@H](n2ccc(N)nc2=O)[C@H](F)[C@@H]1O [Compound 21a]", "1 to 10 µM"]
]}
